Entries and their measured pIC50 follow.
# system.under.test: human OATP2B1 (Homo sapiens, UniProt O94956)
# Construct: expressed in transfected cells; host or cells: A431 cells
# Sequence (O94956 1-709): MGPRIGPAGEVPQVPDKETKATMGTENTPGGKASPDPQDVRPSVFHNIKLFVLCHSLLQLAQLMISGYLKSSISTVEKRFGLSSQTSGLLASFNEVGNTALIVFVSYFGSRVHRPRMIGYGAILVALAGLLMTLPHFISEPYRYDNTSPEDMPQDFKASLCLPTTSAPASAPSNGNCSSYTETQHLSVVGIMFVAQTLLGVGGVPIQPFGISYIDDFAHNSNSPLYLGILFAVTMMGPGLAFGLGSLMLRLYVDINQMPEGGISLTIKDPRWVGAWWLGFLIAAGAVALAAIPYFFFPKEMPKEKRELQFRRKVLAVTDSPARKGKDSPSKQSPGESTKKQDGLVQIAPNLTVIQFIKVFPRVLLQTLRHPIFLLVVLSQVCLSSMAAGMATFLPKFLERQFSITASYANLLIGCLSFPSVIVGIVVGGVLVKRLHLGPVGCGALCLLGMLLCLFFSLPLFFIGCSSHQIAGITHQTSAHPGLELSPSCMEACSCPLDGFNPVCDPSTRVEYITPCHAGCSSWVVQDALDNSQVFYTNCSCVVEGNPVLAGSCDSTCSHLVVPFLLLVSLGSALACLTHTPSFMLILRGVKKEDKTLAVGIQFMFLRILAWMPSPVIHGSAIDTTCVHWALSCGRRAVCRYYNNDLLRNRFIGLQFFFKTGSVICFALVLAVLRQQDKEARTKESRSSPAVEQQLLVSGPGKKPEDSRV
# protocol.description: Cascade Blue uptake assay of OATP2B1 transport activity
# Type: cell-based
pIC50: −log10 of the molar value.
readout.label: pIC50

{"columns": ["molecule", "readout.label", "relation", "assay.value"],
 "data": [
  ["C[C@@]12CC[C@@H]3c4cc(P(=O)(c5ccccc5)c5ccccc5)c(O)cc4CC[C@H]3[C@@H]1CCC2=O", "pIC50", "=", 5.59],
  ["C[C@@]12CC[C@@H]3c4cc(P(=O)(c5ccccc5)c5ccccc5)c(OCc5ccccc5)cc4CC[C@H]3[C@@H]1CCC2=O [10b]", "pIC50", "=", 6.00],
  ["CCOP(=O)(OCC)c1cc2c(cc1OC)CC[C@@H]1[C@@H]2CC[C@@]2(C)C(=O)CC[C@@H]12", "pIC50", "=", 5.74],
  ["CCOP(=O)(OCC)c1c(OC)ccc2c1CC[C@@H]1[C@@H]2CC[C@@]2(C)C(=O)CC[C@@H]12 [11a]", "pIC50", "=", 5.55],
  ["CCOP(=O)(OCC)c1c(O)ccc2c1CC[C@@H]1[C@@H]2CC[C@@]2(C)C(=O)CC[C@@H]12 [12a]", "pIC50", "=", 5.85],
  ["COc1ccc2c(c1P(=O)(c1ccccc1)c1ccccc1)CC[C@@H]1[C@@H]2CC[C@@]2(C)C(=O)CC[C@@H]12 [11b]", "pIC50", "=", 5.60],
  ["C[C@@]12CC[C@@H]3c4ccc(OCc5ccccc5)c(P(=O)(c5ccccc5)c5ccccc5)c4CC[C@H]3[C@@H]1CCC2=O [13b]", "pIC50", "=", 6.52],
  ["COc1cc2c(cc1P(=O)(c1ccccc1)c1ccccc1)[C@H]1CC[C@@]3(C)C(=O)CC[C@H]3[C@@H]1CC2", "pIC50", "=", 5.92],
  ["CCOP(=O)(OCC)c1cc2c(cc1OCc1ccccc1)CC[C@@H]1[C@@H]2CC[C@@]2(C)C(=O)CC[C@@H]12 [10a]", "pIC50", "=", 6.70],
  ["CCOP(=O)(OCC)c1cc2c(cc1O)CC[C@@H]1[C@@H]2CC[C@@]2(C)C(=O)CC[C@@H]12", "pIC50", "=", 5.68],
  ["C[C@@]12CC[C@@H]3c4ccc(O)c(P(=O)(c5ccccc5)c5ccccc5)c4CC[C@H]3[C@@H]1CCC2=O [12b]", "pIC50", "<", 4.30],
  ["CCOP(=O)(OCC)c1c(OCc2ccccc2)ccc2c1CC[C@@H]1[C@@H]2CC[C@@]2(C)C(=O)CC[C@@H]12 [13a]", "pIC50", "=", 6.52]
]}

====

# system.under.test: human placental steroid sulfatase (STS) (Homo sapiens)
# Construct: from tissue; host or cells: human term placenta, microsomes
# Sequence (P08842 22-583): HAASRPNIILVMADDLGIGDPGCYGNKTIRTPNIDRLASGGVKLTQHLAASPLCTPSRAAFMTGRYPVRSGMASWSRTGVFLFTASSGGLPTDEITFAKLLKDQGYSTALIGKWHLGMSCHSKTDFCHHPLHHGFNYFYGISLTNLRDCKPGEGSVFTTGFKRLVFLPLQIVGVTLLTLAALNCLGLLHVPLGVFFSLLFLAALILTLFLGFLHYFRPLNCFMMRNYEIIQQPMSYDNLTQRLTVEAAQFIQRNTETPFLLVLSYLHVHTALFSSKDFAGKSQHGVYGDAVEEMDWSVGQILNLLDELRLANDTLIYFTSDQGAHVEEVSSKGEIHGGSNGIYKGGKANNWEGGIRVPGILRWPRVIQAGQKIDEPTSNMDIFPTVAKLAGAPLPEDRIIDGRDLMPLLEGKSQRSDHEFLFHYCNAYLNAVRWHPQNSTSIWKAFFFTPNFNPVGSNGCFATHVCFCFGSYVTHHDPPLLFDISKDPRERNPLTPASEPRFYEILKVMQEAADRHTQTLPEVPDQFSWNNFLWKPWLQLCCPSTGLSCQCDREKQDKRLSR
# protocol.description: STS in vitro radiosubstrate incubation (estrone-3-sulfate to estrone conversion)
# Type: biochemical
# applied.conditions: relative conversion vs non-inhibited control (100%); test compound 10 μM; substrate E1S 1.0 μM; placental microsomes; n = 3; read-out: STS rel. conv. ± SD
readout.label: remaining activity at 10 µM (%)

{"columns": ["compound", "system.under.test", "assay.value"],
 "data": [
  ["CCOP(=O)(OCC)c1cc2c(cc1O)CC[C@@H]1[C@@H]2CC[C@@]2(C)C(=O)CC[C@@H]12", "human placental steroid sulfatase (STS) (Homo sapiens)", 97],
  ["COc1cc2c(cc1P(=O)(c1ccccc1)c1ccccc1)[C@H]1CC[C@@]3(C)C(=O)CC[C@H]3[C@@H]1CC2", "human placental steroid sulfatase (STS) (Homo sapiens)", 80],
  ["COc1ccc2c(c1P(=O)(c1ccccc1)c1ccccc1)CC[C@@H]1[C@@H]2CC[C@@]2(C)C(=O)CC[C@@H]12 [11b]", "human placental steroid sulfatase (STS) (Homo sapiens)", 80],
  ["C[C@@]12CC[C@@H]3c4cc(P(=O)(c5ccccc5)c5ccccc5)c(OCc5ccccc5)cc4CC[C@H]3[C@@H]1CCC2=O [10b]", "human placental steroid sulfatase (STS) (Homo sapiens)", 85],
  ["CCOP(=O)(OCC)c1cc2c(cc1OC)CC[C@@H]1[C@@H]2CC[C@@]2(C)C(=O)CC[C@@H]12", "human placental steroid sulfatase (STS) (Homo sapiens)", 84]
]}

====

# system.under.test: 17β-hydroxysteroid dehydrogenase type 1 (17β-HSD1) (Homo sapiens)
# Construct: from tissue; host or cells: human term placenta, cytosol
# protocol.description: 17β-HSD1 in vitro radiosubstrate incubation (estrone to 17β-estradiol conversion)
# Format: biochemical
# applied.conditions: read-out: 17β-HSD1 rel. conv. ± SD
Entries and their measured remaining activity at 10 µM follow.

{"columns": ["compound", "remaining activity at 10 µM"],
 "data": [
  ["CCOP(=O)(OCC)c1cc2c(cc1OC)CC[C@@H]1[C@@H]2CC[C@@]2(C)C(=O)CC[C@@H]12", "60%"],
  ["C[C@@]12CC[C@@H]3c4cc(P(=O)(c5ccccc5)c5ccccc5)c(OCc5ccccc5)cc4CC[C@H]3[C@@H]1CCC2=O [10b]", "73%"],
  ["CCOP(=O)(OCC)c1c(OCc2ccccc2)ccc2c1CC[C@@H]1[C@@H]2CC[C@@]2(C)C(=O)CC[C@@H]12 [13a]", "92%"],
  ["C[C@@]12CC[C@@H]3c4ccc(OCc5ccccc5)c(P(=O)(c5ccccc5)c5ccccc5)c4CC[C@H]3[C@@H]1CCC2=O [13b]", "75%"],
  ["CCOP(=O)(OCC)c1cc2c(cc1OCc1ccccc1)CC[C@@H]1[C@@H]2CC[C@@]2(C)C(=O)CC[C@@H]12 [10a]", "64%"]
]}

====

# system.under.test: 17β-hydroxysteroid dehydrogenase type 1 (17β-HSD1) (Homo sapiens, UniProt P14061)
# Construct: from tissue; host or cells: human term placenta, cytosol
# Sequence (P14061 1-328): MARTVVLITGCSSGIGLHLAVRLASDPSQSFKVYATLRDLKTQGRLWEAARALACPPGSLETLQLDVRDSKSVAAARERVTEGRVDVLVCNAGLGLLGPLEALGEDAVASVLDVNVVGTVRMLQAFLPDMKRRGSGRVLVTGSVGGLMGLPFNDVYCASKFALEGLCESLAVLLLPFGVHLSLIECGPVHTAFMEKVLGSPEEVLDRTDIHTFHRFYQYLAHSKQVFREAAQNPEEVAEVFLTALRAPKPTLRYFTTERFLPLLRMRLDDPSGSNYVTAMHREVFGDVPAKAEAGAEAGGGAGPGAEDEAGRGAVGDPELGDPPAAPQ
# protocol.description: 17β-HSD1 in vitro radiosubstrate incubation (estrone to 17β-estradiol conversion)
# Assay type: biochemical
# applied.conditions: human placental cytosol; estrone 1.0 μM; 0.1 mM NADPH; read-out: 17β-HSD1 IC50 ± SD

{"columns": ["compound", "output.unit", "IC50"],
 "data": [
  ["C[C@@]12CC[C@@H]3c4cc(P(=O)(c5ccccc5)c5ccccc5)c(O)cc4CC[C@H]3[C@@H]1CCC2=O", "nM", 180]
]}

====

# system.under.test: human placental steroid sulfatase (STS) (Homo sapiens)
# Construct: from tissue; host or cells: human term placenta, microsomes
# protocol.description: STS in vitro radiosubstrate incubation (estrone-3-sulfate to estrone conversion)
# Format: biochemical
# applied.conditions: relative conversion vs non-inhibited control (100%); test compound 10 μM; substrate E1S 1.0 μM; placental microsomes; n = 3; read-out: STS rel. conv. ± SD
So basically: is remaining activity at 10 µM under 90%? Then yes. Not under? Then no.

{"columns": ["compound", "group"],
 "data": [
  ["C[C@@]12CC[C@@H]3c4cc(P(=O)(c5ccccc5)c5ccccc5)c(O)cc4CC[C@H]3[C@@H]1CCC2=O [9b]", "yes"],
  ["CCOP(=O)(OCC)c1c(OCc2ccccc2)ccc2c1CC[C@@H]1[C@@H]2CC[C@@]2(C)C(=O)CC[C@@H]12 [13a]", "yes"],
  ["CCOP(=O)(OCC)c1c(O)ccc2c1CC[C@@H]1[C@@H]2CC[C@@]2(C)C(=O)CC[C@@H]12 [12a]", "no"],
  ["C[C@@]12CC[C@@H]3c4ccc(O)c(P(=O)(c5ccccc5)c5ccccc5)c4CC[C@H]3[C@@H]1CCC2=O [12b]", "no"],
  ["CCOP(=O)(OCC)c1cc2c(cc1OCc1ccccc1)CC[C@@H]1[C@@H]2CC[C@@]2(C)C(=O)CC[C@@H]12 [10a]", "yes"],
  ["C[C@@]12CC[C@@H]3c4ccc(OCc5ccccc5)c(P(=O)(c5ccccc5)c5ccccc5)c4CC[C@H]3[C@@H]1CCC2=O [13b]", "no"],
  ["CCOP(=O)(OCC)c1c(OC)ccc2c1CC[C@@H]1[C@@H]2CC[C@@]2(C)C(=O)CC[C@@H]12 [11a]", "no"]
]}
